Hello, the source for this data is patent US20120023600A1, in case you need it.

Molecular target: T1, recombinant human DKK1 (human, UniProt O94907 32-266)
T1 construct: also called Dickkopf-1; rhDKK1
T1 sequence: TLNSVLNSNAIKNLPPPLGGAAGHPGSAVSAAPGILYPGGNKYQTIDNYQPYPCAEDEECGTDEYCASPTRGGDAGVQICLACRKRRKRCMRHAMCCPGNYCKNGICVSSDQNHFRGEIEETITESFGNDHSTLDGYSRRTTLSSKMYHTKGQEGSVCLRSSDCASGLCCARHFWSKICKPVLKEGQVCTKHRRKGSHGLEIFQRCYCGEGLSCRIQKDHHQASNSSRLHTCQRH
Experiment: SPR (Biacore), DKK1 immobilised on CM5 chip, Fab as analyte
// Kd lookup, one value per entry
Supply the numeric figure in nM, leaving out any unit text.

Field: example entries. Status: answers known.
[
  {
    "binder": "MOR04470 (Fab, V domains shown, Fab with C-terminal FLAG and 6xHis tags) VH: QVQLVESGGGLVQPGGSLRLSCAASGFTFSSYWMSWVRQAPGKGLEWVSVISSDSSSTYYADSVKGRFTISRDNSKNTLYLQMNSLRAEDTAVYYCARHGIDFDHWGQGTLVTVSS VL: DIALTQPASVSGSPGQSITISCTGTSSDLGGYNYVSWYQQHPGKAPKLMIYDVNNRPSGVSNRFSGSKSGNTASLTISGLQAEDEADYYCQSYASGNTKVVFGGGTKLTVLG",
    "Kd [nM]": 3.2
  },
  {
    "binder": "MOR04454 (Fab, V domains shown, Fab with C-terminal FLAG and 6xHis tags) VH: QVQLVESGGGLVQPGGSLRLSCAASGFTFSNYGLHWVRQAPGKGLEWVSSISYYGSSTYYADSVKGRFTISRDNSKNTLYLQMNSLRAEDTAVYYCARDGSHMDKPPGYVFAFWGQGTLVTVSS VL: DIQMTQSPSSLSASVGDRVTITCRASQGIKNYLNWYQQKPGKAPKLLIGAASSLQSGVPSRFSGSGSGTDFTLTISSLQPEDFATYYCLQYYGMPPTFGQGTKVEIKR",
    "Kd [nM]": 3.2
  },
  {
    "binder": "MOR04516 (Fab, V domains shown, Fab with C-terminal FLAG and 6xHis tags; also called MOR4516) VH: QVQLVQSGAEVKKPGESLKISCKGSGYSFTNYYIGWVRQMPGKGLEWMGIIYPTDSYTNYSPSFQGQVTISADKSISTAYLQWSSLKASDTAMYYCARGIPFRMRGFDYWGQGTLVTVSS VL: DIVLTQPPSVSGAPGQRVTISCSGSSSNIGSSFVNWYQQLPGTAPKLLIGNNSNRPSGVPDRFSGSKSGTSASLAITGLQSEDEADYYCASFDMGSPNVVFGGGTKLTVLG",
    "Kd [nM]": 2.6
  },
  {
    "binder": "MOR04456 (Fab, V domains shown, Fab with C-terminal FLAG and 6xHis tags) VH: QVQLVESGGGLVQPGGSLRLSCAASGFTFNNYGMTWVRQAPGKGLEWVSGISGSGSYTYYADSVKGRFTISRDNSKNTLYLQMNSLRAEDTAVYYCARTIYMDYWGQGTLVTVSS VL: DIVLTQSPATLSLSPGERATLSCRASQNLFSPYLAWYQQKPGQAPRLLIYGASNRATGVPARFSGSGSGTDFTLTISSLEPEDFATYYCQQYGDEPITFGQGTKVEIKR",
    "Kd [nM]": 7.9
  },
  {
    "binder": "MOR04461 (Fab, V domains shown, Fab with C-terminal FLAG and 6xHis tags) VH: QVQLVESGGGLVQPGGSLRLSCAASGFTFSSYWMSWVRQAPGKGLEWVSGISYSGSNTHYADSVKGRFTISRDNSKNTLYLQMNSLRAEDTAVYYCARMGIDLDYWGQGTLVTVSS VL: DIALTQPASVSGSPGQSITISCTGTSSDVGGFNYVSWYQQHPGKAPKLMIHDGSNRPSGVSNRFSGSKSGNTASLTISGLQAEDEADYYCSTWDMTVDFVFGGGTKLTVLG",
    "Kd [nM]": 7.6
  }
]

Turning now to a further binder:
For reference, reported Kd for MOR04455 (Fab, V domains shown, Fab with C-terminal FLAG and 6xHis tags) VH: QVQLVESGGGLVQPGGSLRLSCAASGFTFSSYGMSWVRQAPGKGLEWVSGISGSGSYTYYADSVKGRFTISRDNSKNTLYLQMNSLRAEDTAVYYCARHYMDHWGQGTLVTVSS VL: DIQMTQSPSSLSASVGDRVTITCRASQDISNYLHWYQQKPGKAPKLLIYGASNLQSGVPSRFSGSGSGTDFTLTISSLQPEDFAVYYCQQYDSIPMTFGQGTKVEIKR stands at 1.6
